- experimentalTarget: Cruzipain (Trypanosoma cruzi, UniProt P25779)
- Sequence (P25779 whole entry): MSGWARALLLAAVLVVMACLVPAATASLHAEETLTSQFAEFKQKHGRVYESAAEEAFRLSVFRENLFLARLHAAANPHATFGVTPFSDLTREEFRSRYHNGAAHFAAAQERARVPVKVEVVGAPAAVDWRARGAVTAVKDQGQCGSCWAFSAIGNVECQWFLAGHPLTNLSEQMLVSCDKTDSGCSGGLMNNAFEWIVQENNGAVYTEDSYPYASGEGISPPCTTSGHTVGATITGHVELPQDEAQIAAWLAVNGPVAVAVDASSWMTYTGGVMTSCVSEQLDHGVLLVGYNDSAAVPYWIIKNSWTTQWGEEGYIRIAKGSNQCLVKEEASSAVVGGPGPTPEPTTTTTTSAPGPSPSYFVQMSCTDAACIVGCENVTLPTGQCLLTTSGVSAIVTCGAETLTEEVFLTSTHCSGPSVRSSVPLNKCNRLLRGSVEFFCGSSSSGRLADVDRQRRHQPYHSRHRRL
- assaySummary: Inhibition of cruzain in presence of 0.01% Triton X-100
measuredEndpoint: IC50 (µM)

Recorded results for 8 molecules are shown here.
O=C(Oc1cccnc1)c1cc2ccccc2oc1=O; 90
CCOC(=O)C1=C(c2ccccc2)NC(SCC(=O)Nc2ccc(C)cc2)=C(C#N)C1c1ccco1 (centres undefined); 120
O=C(O)C1=CC(=C(c2ccc(O)c(C(=O)O)c2)c2ccc(O)c(C(=O)O)c2)C=CC1=O; 28
COc1cccc2cc(C(=O)n3ccc(C)n3)c(=O)oc12; 106
CC(C)(C)OC(=O)NCc1nnc(S(=O)(=O)Cc2ccc(Cl)cc2Cl)o1; 410
N[C@@H](Cc1cc(-c2ccc(Cl)cc2Cl)cc(CP(=O)(O)O)c1O)C(=O)O; 158
O=c1oc2c(O)c(O)cc3c(=O)oc4c(O)c(O)cc1c4c23; 220
O=C(CC1(O)C(=O)Nc2cc(Cl)cc(Cl)c21)c1ccccc1O (centres undefined); 170

1. CCOC(=O)SC1=N/C(=C/c2ccc(N(C)C)cc2)C(=O)S1
2. CC(C)(C)OC(=O)NCCc1nnc(S(=O)(=O)Cc2ccc(Cl)cc2Cl)o1
Lower IC50: 1 or 2 ? Reply with the label of the item you choose.
1

---

- assaySummary: Inhibition of chymotrypsin in presence of 0.1% Triton X-100
measuredEndpoint: IC50 (µM)

O=C(Nc1nc2n(n1)C(c1ccccc1)C=C(c1ccccc1)N2)c1ccco1 (stereo not given); 27

a. O=C(Oc1cccnc1)c1cc2ccccc2oc1=O
b. N[C@@H](Cc1cc(-c2ccc(Cl)cc2Cl)cc(CP(=O)(O)O)c1O)C(=O)O
c. CC(C)C[C@H](N)c1nnc(S(=O)(=O)Cc2ccc(F)cc2)o1
Could you please sort these 3 entries by IC50 from high to low? To answer, arrange all of the labels according to the requested order.
b, c, a
(b: 400 µM, c: 170 µM, a: 37 µM)

---

- experimentalTarget: UniProt P25779
- assaySummary: Inhibition of cruzain
measuredEndpoint: IC50 (µM)

Recorded results for 3 compounds are shown here.
COc1cccc2cc(C(=O)n3ccc(C)n3)c(=O)oc12; 120
CC(C)(C)OC(=O)NCCc1nnc(S(=O)(=O)Cc2ccc(Cl)cc2Cl)o1; 95
Cc1occc1C(=O)n1nnc2ccccc21; 106

1. CC(C)(C)OC(=O)NCc1nnc(S(=O)(=O)Cc2ccc(Cl)cc2Cl)o1
2. O=C(O)C1=CC(=C(c2ccc(O)c(C(=O)O)c2)c2ccc(O)c(C(=O)O)c2)C=CC1=O
3. S=C(S)OC1CC2CC1C1CCCC21 (stereo not given)
Task for the reader: rank each entry by its IC50, from the minimum upward. To answer, arrange all of the labels according to the requested order.
3, 2, 1
(3: 15 µM, 2: 53 µM, 1: 95 µM)

---

- assaySummary: Inhibition of chymotrypsin in presence of 0.1% Triton X-100
pIC50: −log10 of the molar value.
measuredEndpoint: pIC50

CC(C)(C)OC(=O)NCc1nnc(S(=O)(=O)Cc2ccc(Cl)cc2Cl)o1; > 6.00
Cc1ccc(C)n1C(Cc1ccccc1)C(=O)O (stereo not given); < 3.22
CCOC(=O)SC1=N/C(=C/c2ccc(N(C)C)cc2)C(=O)S1; 5.10
O=C(O)C1=CC(=C(c2ccc(O)c(C(=O)O)c2)c2ccc(O)c(C(=O)O)c2)C=CC1=O; < 3.22
S=C(S)OC1CC2CC1C1CCCC21 (stereo not given); < 3.22
COc1cccc2cc(C(=O)n3ccc(C)n3)c(=O)oc12; 4.15
Cc1occc1C(=O)n1nnc2ccccc21; > 6.00
CC(C)[C@H](NC(=O)OC(C)(C)C)c1nnc(S(=O)(=O)Cc2c(F)cccc2Cl)o1 (stereo in doubt; 1); > 6.00

Suppose we examine the compound CC(C)(C)OC(=O)NCCc1nnc(S(=O)(=O)Cc2ccc(Cl)cc2Cl)o1 ; what pIC50 value has been reported?
> 6.00

Suppose we examine the compound O=C(NCCc1ccccc1)C1CCCN(S(=O)(=O)c2cccc3nsnc23)C1 (stereo not given) ; what pIC50 value has been reported?
3.46

Cited source: ChEMBL document CHEMBL1142414
